# System: U-2932
# Experiment: growth inhibition by drug plus 177Lu-lilotomab satetraxetan (1 - RLU/untreated control) (fraction); higher = stronger inhibition
# Condition parameters: 10 nM; time (day): 5; 177Lu-lilotomab satetraxetan 1 ug/ml
Structures can show the parent of a compound that is named as a salt.
Readout kind: growth inhibition by drug plus 177Lu-lilotomab satetraxetan
Write the value as a bare number.

Query :: Could you share which growth inhibition by drug plus 177Lu-lilotomab satetraxetan value was measured for `O=C(O)CC[C@H]1CC[C@@](c2cc(F)ccc2F)(S(=O)(=O)c2ccc(Cl)cc2)CC1` ?
Result :: 0.123

Query :: Consider the compound shown here: `CCn1c(-c2nonc2N)nc2cnc(Oc3cccc(NC(=O)c4ccc(OCCN5CCOCC5)cc4)c3)cc21` What is its recorded growth inhibition by drug plus 177Lu-lilotomab satetraxetan?
Result :: -0.0619

Query :: Please report the recorded growth inhibition by drug plus 177Lu-lilotomab satetraxetan for CCN[C@H]1C[C@H](C)S(=O)(=O)c2sc(S(N)(=O)=O)cc21 [Dorzolamide HCL] .
Result :: -0.00192

Query :: # query: growth inhibition by drug plus 177Lu-lilotomab satetraxetan of entry `Nc1nccc(Oc2ccc(NC(=O)c3c[nH]cc(-c4ccc(F)cc4)c3=O)cc2F)c1Cl`
Result :: 0.0271

Query :: Query (compound): `COc1ccc(C2=N[C@@H](c3ccc(Cl)cc3)[C@@H](c3ccc(Cl)cc3)N2C(=O)N2CCNC(=O)C2)c(OC(C)C)c1` ; field requested: growth inhibition by drug plus 177Lu-lilotomab satetraxetan
Result :: 0.0366

Query :: Requested read-out: growth inhibition by drug plus 177Lu-lilotomab satetraxetan. Entry: CCCC(CCC)C(=O)O [Valproic acid sodium salt (Sodium valproate)]
Result :: 0.0823

Query :: Name the recorded growth inhibition by drug plus 177Lu-lilotomab satetraxetan for `Cc1nn(-c2ccccc2)c(C)c1C=NN1CCN(Cc2ccccc2)CC1` .
Result :: 0.00875

Query :: Please report the recorded growth inhibition by drug plus 177Lu-lilotomab satetraxetan for `CCOc1ccn(-c2ccc(F)cc2)c(=O)c1C(=O)Nc1ccc(Oc2ccnc(N)c2Cl)c(F)c1` .
Result :: 0.188

Query :: For the compound `Cc1cc(O)c2c(c1)C(=O)c1cccc(O)c1C2=O` , what growth inhibition by drug plus 177Lu-lilotomab satetraxetan is on record?
Result :: 0.0467

Query :: Would you mind telling me what growth inhibition by drug plus 177Lu-lilotomab satetraxetan value was observed for O=C(O)C(Cc1c[nH]c2ccccc12)N1C(=O)c2ccccc2C1=O (stereo not given) ?
Result :: -0.032

Query :: Record request: growth inhibition by drug plus 177Lu-lilotomab satetraxetan value, item `COc1ccc2c3n(c(=NC(=O)c4cccnc4)nc2c1OC)CCN3`
Result :: 0.0894

Query :: Consider the compound `COc1ccc(-c2ccc3c(N4CCOCC4)nc(N4C[C@@H](C)O[C@@H](C)C4)nc3n2)cc1CO` and give its measured growth inhibition by drug plus 177Lu-lilotomab satetraxetan.
Result :: 0.0942

Query :: # growth inhibition by drug plus 177Lu-lilotomab satetraxetan lookup, item `Cc1cccc(-c2nn3c(c2-c2ccnc4ccc(C(N)=O)cc24)CCC3)n1`
Result :: -0.0409

Query :: I would be grateful if you could share the reported growth inhibition by drug plus 177Lu-lilotomab satetraxetan for `C=CC(=O)Nc1cccc(Oc2nc(Nc3ccc(N4CCN(C)CC4)cc3OC)ncc2Cl)c1` .
Result :: -0.0211

Query :: # lookup: growth inhibition by drug plus 177Lu-lilotomab satetraxetan of `c1ccc2c(-c3cnn4cc(-c5ccc(N6CCNCC6)cc5)cnc34)ccnc2c1`
Result :: 0.0116

Query :: Look up growth inhibition by drug plus 177Lu-lilotomab satetraxetan: O=C(O[C@@H]1Cc2c(O)cc(O)cc2O[C@@H]1c1cc(O)c(O)c(O)c1)c1cc(O)c(O)c(O)c1 [(-)-Epigallocatechin gallate]
Result :: -0.03

Query :: What does the record list as growth inhibition by drug plus 177Lu-lilotomab satetraxetan for `CS(=O)(=O)N1CCc2c(-c3cnc(N)nc3)nc(N3CCOCC3)nc21` ?
Result :: 0.0957

Query :: // growth inhibition by drug plus 177Lu-lilotomab satetraxetan lookup, key: O=C1c2c(O)ccc(O)c2C(=O)c2c(NCCNCCO)ccc(NCCNCCO)c21 [Mitoxantrone Hydrochloride]
Result :: 0.81

Query :: // query growth inhibition by drug plus 177Lu-lilotomab satetraxetan value for entry `C=CCc1cccc(/C=N/NC(=O)CN2CCN(Cc3ccccc3)CC2)c1O`
Result :: 0.173

Query :: Endpoint output: growth inhibition by drug plus 177Lu-lilotomab satetraxetan of CC(C)C(=O)Nc1ccc([N+](=O)[O-])c(C(F)(F)F)c1 [Flutamide (Eulexin)] . Value?
Result :: 0.26

Query :: Which growth inhibition by drug plus 177Lu-lilotomab satetraxetan value is on record for C[S+]([O-])c1ccc(-c2nc(-c3ccc(F)cc3)c(-c3ccncc3)[nH]2)cc1 (stereo not given) ?
Result :: 0.206

Query :: Using the record for `CCc1cc(Nc2nccc(-c3c(-c4ccc(OC)c(C(=O)Nc5c(F)cccc5F)c4)nc4ccccn34)n2)c(OC)cc1N1CCC(N2CCN(S(C)(=O)=O)CC2)CC1` , report its growth inhibition by drug plus 177Lu-lilotomab satetraxetan.
Result :: 0.0318

Query :: Given the compound `CCCCCCCc1ccc(CCc2cccc(O)c2C(=O)O)cc1` , what is its reported growth inhibition by drug plus 177Lu-lilotomab satetraxetan?
Result :: 0.0811

Query :: Item `CNC(=O)c1ccc(C)c(-n2c(C)cc(OCc3ccc(F)cc3F)c(Br)c2=O)c1` has what recorded growth inhibition by drug plus 177Lu-lilotomab satetraxetan?
Result :: -0.0169

Query :: Consider the compound shown here: `Cc1ccc(F)c(NC(=O)Nc2ccc(-c3cccc4[nH]nc(N)c34)cc2)c1` What is its recorded growth inhibition by drug plus 177Lu-lilotomab satetraxetan?
Result :: 0.0473

Query :: What value of growth inhibition by drug plus 177Lu-lilotomab satetraxetan has been recorded for this entry: `Nc1ccn([C@@H]2O[C@H](CO)[C@@H](O)[C@@H]2O)c(=O)n1`
Result :: -0.0153

Query :: Given `COc1cc2c(NC3CCN(C)CC3)nc(N3CCCN(C)CC3)nc2cc1OCCCN(C)C` , state its recorded growth inhibition by drug plus 177Lu-lilotomab satetraxetan.
Result :: 0.0125

Query :: What growth inhibition by drug plus 177Lu-lilotomab satetraxetan value was documented for this compound, CC(NC(=O)c1ccccc1/N=C/c1c(O)ccc2ccccc12)c1ccccc1 (stereo not given) ?
Result :: 0.116

Query :: I have this compound here, `COCC[n+]1c2c(n(Cc3cnccn3)c1C)C(=O)c1ccccc1C2=O` , and I need its recorded growth inhibition by drug plus 177Lu-lilotomab satetraxetan.
Result :: 0.969

Query :: What value of growth inhibition by drug plus 177Lu-lilotomab satetraxetan has been reported for the following compound? CN(N=O)C(=O)N[C@@H](C=O)[C@@H](O)[C@H](O)[C@H](O)CO [Streptozotocin (Zanosar)]
Result :: -0.0238

Query :: So what's the measured growth inhibition by drug plus 177Lu-lilotomab satetraxetan for this one? CCN(CC)CCNC(=O)c1c(C)[nH]c(/C=C2\C(=O)Nc3ccc(F)cc32)c1C [Sunitinib Malate (Sutent)]
Result :: -0.026

Query :: Field request: growth inhibition by drug plus 177Lu-lilotomab satetraxetan | item: `NC(=O)c1ccc2nc(-c3ccc(Oc4ccc(Cl)cc4)cc3)[nH]c2c1`
Result :: 0.0592

Query :: For the compound shown here, `C[C@]1(O)C[C@@H](c2nc(-c3ccc4ccc(-c5ccccc5)nc4c3)c3c(N)nccn32)C1` , give the reported growth inhibition by drug plus 177Lu-lilotomab satetraxetan.
Result :: 0.0354

Query :: May I ask what growth inhibition by drug plus 177Lu-lilotomab satetraxetan has been recorded for CCN(CC)CCCC(C)Nc1nc(C)cc(Nc2ccc3nc(C)cc(N)c3c2)n1 (stereo not given) ?
Result :: 0.161

Query :: Which measured growth inhibition by drug plus 177Lu-lilotomab satetraxetan value corresponds to CC(=O)O[C@]1(C(C)=O)CC[C@H]2[C@@H]3C=C(C)C4=CC(=O)CC[C@]4(C)[C@H]3CC[C@@]21C [Megestrol Acetate] ?
Result :: 0.0868
